# target of assay: PI3K-γ (Homo sapiens)
# Sequence (P48736 whole entry, species assumed): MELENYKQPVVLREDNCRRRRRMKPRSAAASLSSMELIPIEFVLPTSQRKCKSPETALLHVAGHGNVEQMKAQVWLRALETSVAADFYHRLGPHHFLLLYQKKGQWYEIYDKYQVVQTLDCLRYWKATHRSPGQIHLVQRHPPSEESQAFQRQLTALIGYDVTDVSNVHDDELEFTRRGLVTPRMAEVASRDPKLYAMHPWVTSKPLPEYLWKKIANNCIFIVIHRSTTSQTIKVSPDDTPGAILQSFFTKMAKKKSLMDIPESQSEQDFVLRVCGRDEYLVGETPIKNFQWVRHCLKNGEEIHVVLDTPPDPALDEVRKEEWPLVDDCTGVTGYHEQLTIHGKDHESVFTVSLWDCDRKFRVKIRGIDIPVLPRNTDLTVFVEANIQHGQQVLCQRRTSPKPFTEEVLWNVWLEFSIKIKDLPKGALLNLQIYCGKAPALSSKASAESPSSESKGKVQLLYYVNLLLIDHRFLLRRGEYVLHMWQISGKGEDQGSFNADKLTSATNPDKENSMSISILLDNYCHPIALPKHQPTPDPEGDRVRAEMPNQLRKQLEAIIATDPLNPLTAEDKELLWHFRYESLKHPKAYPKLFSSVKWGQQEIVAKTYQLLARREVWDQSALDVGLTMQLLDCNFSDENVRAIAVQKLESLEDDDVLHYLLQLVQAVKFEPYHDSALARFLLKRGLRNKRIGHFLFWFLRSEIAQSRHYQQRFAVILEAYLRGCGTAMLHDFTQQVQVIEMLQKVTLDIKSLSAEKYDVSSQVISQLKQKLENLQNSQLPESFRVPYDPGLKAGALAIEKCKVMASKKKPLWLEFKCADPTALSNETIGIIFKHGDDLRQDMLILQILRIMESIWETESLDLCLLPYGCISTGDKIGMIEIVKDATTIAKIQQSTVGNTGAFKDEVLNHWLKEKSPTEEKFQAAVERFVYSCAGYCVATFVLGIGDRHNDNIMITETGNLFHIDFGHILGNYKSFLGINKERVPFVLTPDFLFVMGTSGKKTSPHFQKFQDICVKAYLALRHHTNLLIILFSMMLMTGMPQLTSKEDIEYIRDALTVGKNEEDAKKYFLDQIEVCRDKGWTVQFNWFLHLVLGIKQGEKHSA
# assay explanation: PI3K-gamma fluorescence polarization assay
# condition notes: read-out: IC50 PI3Kγ
Counter-ions that a name gives are not always drawn.
measured property: log10 of IC50 (log10 of the value in nM)
Scale: decimal log of IC50, IC50 in nM.

Use the examples below as a reference point.
CN1CCN(C(=O)c2ccc(NC(=O)Nc3ccc(-c4nc(N5CCOCC5)nc(N5CCOCC5)n4)cc3)cc2)CC1 [Example 69, hydrochloride]: 0.90
COC(=O)c1ccc(NC(=O)Nc2ccc(-c3nc(N4CCC4)nc(N4CCOCC4)n3)cc2)cc1: 3.53
C[C@H]1COCCN1c1nc(-c2ccc(NC(=O)Nc3ccncc3)cc2)nc(N2CCOCC2)n1: 1.49
CN(C)CCN(C)C(=O)c1ccc(NC(=O)Nc2ccc(-c3nc(N4CCOCC4)nc(N4CC5CCC4CO5)n3)cc2)cc1 (stereo not shown): 1.41
C[C@H]1COCCN1c1nc(-c2ccc(NC(=O)Nc3ccc(C(=O)O)cc3)cc2)nc(N2C3CCC2COC3)n1: 2.53
O=C(Nc1ccc(C(=O)NCCN2CCCCC2)cc1)Nc1ccc(-c2nc(N3CCOCC3)nc(N3CCOCC3)n2)cc1: 3.91

Memo: CC(C)c1nc(-c2ccc(NC(=O)Nc3ccc(C(=O)N(C)CCN(C)C)cc3)cc2)nc(N2CCOCC2)n1 , reported log10 of IC50: 1.28

###

Entries annotated with measured pIC50
# Tested on: human breast MDA-MB-361 tumor cell line
# assay explanation: In vitro cell culture growth assay (MTS), MDA-MB-361
# Assay type: cell-based
# condition notes: Homo sapiens, MDA-MB-361, 72 h, MTS cell growth assay, three days after drug treatment, MDA-MB-361 cells; read-out: IC50 MDA-MB-361
Would you please state pIC50, meaning minus log10 of the concentration in mol/L, as a bare number?

CN1CCN(Cc2ccc(NC(=O)Nc3ccc(-c4nc(N5CCOCC5)nc(N5C6CCC5COC6)n4)cc3)cc2)CC1 [Example 250]: 7.85
CN1CCN(C(=O)c2ccc(NC(=O)Nc3ccc(-c4nc(N5CCOCC5)nc(N5CCN(C(=O)N(C)C)CC5)n4)cc3)cc2)CC1 [Example 643]: 7.72
CN(C)C1CCN(C(=O)c2ccc(NC(=O)Nc3ccc(-c4nc(N5CCCC5)nc(N5CCOCC5)n4)cc3)cc2)CC1 [Example 602]: 7.77

Memo: O=C(Nc1ccc(C(=O)N2CCC(N3CCCCC3)CC2)cc1)Nc1ccc(-c2nc(N3CCOCC3)nc(N3C4COCC3COC4)n2)cc1 [Example 777] , reported pIC50: 8.70

Memo: O=C(Nc1ccc(C(=O)O)cc1)Nc1ccc(-c2nc(N3CCOCC3)nc(N3C4CCC3COC4)n2)cc1 [Example 764] , reported pIC50: 6.20

Memo: O=C(Nc1ccc(C(=O)N2CCN(C3CCCC3)CC2)cc1)Nc1ccc(-c2nc(N3CCOCC3)nc(N3C4CCC3COC4)n2)cc1 [Example 755] , reported pIC50: 8.52

Memo: COC(=O)c1ccc(NC(=O)Nc2ccc(-c3nc(N4CCCOCC4)nc(N4CCOCC4)n3)cc2)cc1 [Example 567] , reported pIC50: 6.97

Memo: O=C(Nc1ccc(C(=O)N2CCOCC2)cc1)Nc1ccc(-c2nc(N3CCOCC3)nc(N3C4CCC3COC4)n2)cc1 [Example 763] , reported pIC50: 8.40

Reference source: patent US20090304692A1
